All values here come from patent US20130281449A1.

- target_system: Human BACE-1 (Homo sapiens, UniProt P56817)
- Sequence (P56817 46-457 limits assumed): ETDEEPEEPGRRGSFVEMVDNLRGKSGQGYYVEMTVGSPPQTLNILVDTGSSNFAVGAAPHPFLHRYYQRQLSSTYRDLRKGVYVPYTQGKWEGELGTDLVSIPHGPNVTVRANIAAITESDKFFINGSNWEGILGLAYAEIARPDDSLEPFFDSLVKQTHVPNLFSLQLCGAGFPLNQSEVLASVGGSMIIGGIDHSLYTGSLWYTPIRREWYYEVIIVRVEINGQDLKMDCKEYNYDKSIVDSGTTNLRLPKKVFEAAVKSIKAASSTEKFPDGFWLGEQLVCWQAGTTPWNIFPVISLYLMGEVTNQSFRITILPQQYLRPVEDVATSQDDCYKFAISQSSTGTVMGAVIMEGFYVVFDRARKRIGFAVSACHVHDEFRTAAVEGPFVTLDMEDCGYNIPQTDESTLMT
- protocol_details: Test 1: Inhibition of Human BACE-1
- test_settings: mean IC50 values in Test 1; recombinant BACE-1, pH 4.5
pIC50: −log10 of the molar value. Structures can show the parent of a compound that is named as a salt.
reported_endpoint: pIC50

Example entries and their recorded answers appear below.
Inquiry: Given the molecule C[C@@]1(c2cc(NC(=O)c3ncc(C(F)(F)F)cc3Cl)ccc2F)CO[C@@](C)(C(F)(F)F)C(N)=N1 [Example 34] , what is its reported pIC50?
Reply text: 7.80

Inquiry: Same read-out for [2H]C([2H])([2H])Oc1cnc(C(=O)Nc2ccc(F)c([C@]3(C(F)F)COCC(N)=N3)c2)c(C)c1 [Example 13] ?
Reply text: 6.96

Inquiry: Please do the same for Cl.[2H]C([2H])([2H])Oc1cnc(C(=O)Nc2ccc(F)c([C@]3(C)CO[C@@](C)(C(F)(F)F)C(N)=N3)c2)c(Cl)c1 [Example 22] as well.
Reply text: 7.70

Inquiry: Would you kindly repeat that for NC1=N[C@@](c2cc(NC(=O)c3ccc4c(Cl)c[nH]c4n3)ccc2F)(C(F)F)COC1 [Example 5] ?
Reply text: 7.92

Inquiry: Follow-up entry: NC1=N[C@@](c2cc(NC(=O)c3ncc(C(F)F)nc3N)ccc2F)(C(F)F)COC1 [Example 6]
Reply text: 7.60

Inquiry: Do the same for [2H]C([2H])([2H])OCc1cc(OC([2H])([2H])[2H])cnc1C(=O)Nc1ccc(F)c([C@]2(C(F)F)COCC(N)=N2)c1 [Example 10] please
Reply text: 6.72

Inquiry: Here is the next molecule: COc1cnc(C(=O)Nc2ccc(F)c([C@]3(C(F)F)COCC(N)=N3)c2)c(C)c1 [Example 7, hydrochloride]
Reply text: 6.89

Inquiry: Could you do the same for [2H]C([2H])([2H])OCc1cc(F)cnc1C(=O)Nc1ccc(F)c([C@]2(C(F)F)COCC(N)=N2)c1 [Example 9] , please?
Reply text: 6.96

Inquiry: Again, but for C#CCOc1cnc(C(=O)Nc2ccc(F)c([C@]3(C)CO[C@@](C)(C(F)(F)F)C(N)=N3)c2)c(N)n1 [Example 25]
Reply text: 9.00

Inquiry: Follow-up entry: Cc1cc(C#N)cnc1C(=O)Nc1cc(F)c(F)c([C@]2(C(F)F)COCC(N)=N2)c1 [Example 14]
Reply text: 7.70

(1) Cc1cc(Cl)cnc1C(=O)Nc1ccc(F)c([C@]2(C)CO[C@@](C)(C(F)(F)F)C(N)=N2)c1 [Example 20, hydrochloride]
(2) Cc1cc(OC(F)F)cnc1C(=O)Nc1ccc(F)c(C2(C)COC(CF)(CF)C(N)=N2)c1 (centres unmarked) [Example 39]
Inquiry: Sort 1 and 2 by pIC50 descending and give the first. Write down the label of the entry you select.
Reply text: 1

(A) C[C@@]1(c2cc(NC(=O)c3ncc(Cl)cc3F)ccc2F)CO[C@@](C)(C(F)(F)F)C(N)=N1 [Example 21, hydrochloride]
(B) Cc1cc(OC(F)F)cnc1C(=O)Nc1ccc(F)c([C@]2(C)COC(CF)(CF)C(N)=N2)c1 [Example 40]
(C) Cc1nc(C(=O)Nc2ccc(F)c([C@]3(C)CO[C@@](C)(C(F)(F)F)C(N)=N3)c2)c(C)o1 [Example 23, hydrochloride]
(D) COc1cc(C(F)F)c(C(=O)Nc2ccc(F)c([C@]3(C)CO[C@@](C)(C(F)(F)F)C(N)=N3)c2)nn1 [Example 30, hydrochloride]
(E) C#CCOc1cnc(C(=O)Nc2ccc(F)c([C@]3(C(F)F)COCC(N)=N3)c2)c(N)n1 [Example 4]
Inquiry: Arrange these molecules by their pIC50, starting with the largest number. # format: label list in the order the request specifies
Reply text: E, A, B, C, D

====

- Test system: Cellular Release of Amyloid Peptide 1-40
- protocol_details: Test 4: Inhibition of Cellular Release of Amyloid Peptide 1-40
- Type: cell-based, Chinese hamster
- test_settings: Cricetulus griseus, 24 h; read-out: Amyloid-β1-40 release IC50
pIC50: −log10 of the molar value. Where a name gives a salt, the structure may show the parent alone.
reported_endpoint: pIC50

Consider the following illustrative entries.
Inquiry: Which pIC50 is reported for this compound? COc1cnc(C(=O)Nc2ccc(F)c([C@]3(C(F)F)COCC(N)=N3)c2)c(C)c1 [Example 7, hydrochloride]
Reply text: 7.96

Inquiry: What do you get for COc1cnc(C(=O)Nc2ccc(F)c([C@]3(C)CO[C@@](C)(C(F)(F)F)C(N)=N3)c2)c(Cl)c1 [Example 18, hydrochloride] ?
Reply text: 8.05

Inquiry: Same lookup for "Cc1cc(C#N)cnc1C(=O)Nc1cc(F)c(F)c([C@]2(C(F)F)COCC(N)=N2)c1" , please.
Reply text: 8.05

(A) Cc1cc(Cl)cnc1C(=O)Nc1ccc(F)c(C2(C)COC(CF)(CF)C(N)=N2)c1 (stereo not shown)
(B) Cc1nc(C(=O)Nc2ccc(F)c([C@]3(C)CO[C@@](C)(C(F)(F)F)C(N)=N3)c2)c(C)o1 [Example 23, hydrochloride]
(C) COc1ccc(C(=O)Nc2ccc(F)c([C@]3(C)CO[C@@](C)(C(F)(F)F)C(N)=N3)c2)c(Cl)n1
(D) C[C@@]1(c2cc(NC(=O)c3ncc(C#N)cc3Cl)ccc2F)CO[C@@](C)(C(F)(F)F)C(N)=N1 [Example 17, hydrochloride]
Inquiry: Arrange these compounds by their pIC50, starting with the largest number. A complete answer lists every label in the requested sequence.
Reply text: D, A, B, C

====

- target_system: Human BACE-1 (Homo sapiens)
- protocol_details: Test 1: Inhibition of Human BACE-1
- test_settings: mean IC50 values in Test 1; recombinant BACE-1, pH 4.5
Structures can show the parent of a compound that is named as a salt.
reported_endpoint: IC50 (nM)

(a) COc1ccc(C(=O)Nc2ccc(F)c([C@]3(C)CO[C@@](C)(C(F)(F)F)C(N)=N3)c2)c(Cl)n1 [Example 45]
(b) COCc1cc(Cl)cnc1C(=O)Nc1ccc(F)c([C@]2(C(F)F)COCC(N)=N2)c1 [Example 1]
(c) N#Cc1cnc(C(=O)Nc2ccc(F)c([C@]3(C(F)F)COCC(N)=N3)c2)c(Cl)c1 [Example 2]
(d) C[C@@]1(c2cc(NC(=O)c3ncc(C#N)cc3Cl)ccc2F)CO[C@@](C)(C(F)(F)F)C(N)=N1 [Example 17, hydrochloride]
Inquiry: Please put the entries in order of rising IC50. Reply with the item labels sorted in the order that was asked for.
Reply text: d, b, c, a
(d: 9 nM, b: 18 nM, c: 32 nM, a: 2600 nM)

====

- Test system: Cellular Release of Amyloid Peptide 1-40
- protocol_details: Test 4: Inhibition of Cellular Release of Amyloid Peptide 1-40
- Type: cell-based, Chinese hamster
- test_settings: Cricetulus griseus, 24 h; read-out: Amyloid-β1-40 release IC50
pIC50: −log10 of the molar value. Counter-ions that a name gives are not always drawn.
reported_endpoint: pIC50

Inquiry: Reported pIC50 for Cc1cc(OC(F)F)cnc1C(=O)Nc1ccc(F)c([C@]2(C)CO[C@@](C)(C(F)(F)F)C(N)=N2)c1 [Example 24, hydrochloride] : what is it?
Reply text: 8.22

Inquiry: How about N#Cc1cnc(C(=O)Nc2ccc(F)c([C@]3(CF)COC(CF)(CF)C(N)=N3)c2)c(Cl)c1 [Example 43] ?
Reply text: 7.66

Inquiry: Again, but for Cc1cc(OC(F)F)cnc1C(=O)Nc1ccc(F)c([C@]2(C)COC(CF)(CF)C(N)=N2)c1 [Example 40]
Reply text: 8.40

Inquiry: For Cc1cc(OC(F)F)cnc1C(=O)Nc1ccc(F)c(C2(C)COC(CF)(CF)C(N)=N2)c1 (stereo not shown) [Example 39] then?
Reply text: 7.66

Inquiry: And Cc1cc(C(F)F)cnc1C(=O)Nc1ccc(F)c([C@]2(C(F)F)COCC(N)=N2)c1 [Example 8, hydrochloride] ?
Reply text: 8.10

Inquiry: Further, for Cc1cc(F)cnc1C(=O)Nc1ccc(F)c([C@]2(C)CO[C@@](C)(C(F)(F)F)C(N)=N2)c1 [Example 35] ?
Reply text: 7.06

Inquiry: Similarly, [2H]C([2H])([2H])OCc1cc(F)cnc1C(=O)Nc1ccc(F)c([C@]2(C(F)F)COCC(N)=N2)c1 [Example 9] ?
Reply text: 7.44

Inquiry: Same thing, different molecule: C[C@@]1(c2cc(NC(=O)c3ncc(C(F)F)cc3Cl)ccc2F)CO[C@@](C)(C(F)(F)F)C(N)=N1 [Example 32]
Reply text: 7.96

Inquiry: // query: Cl.[2H]C([2H])([2H])Oc1cnc(C(=O)Nc2ccc(F)c([C@]3(C)CO[C@@](C)(C(F)(F)F)C(N)=N3)c2)c(Cl)c1 [Example 22]
Reply text: 8.15

Inquiry: Next molecule: [2H]c1nc(C(=O)Nc2cc(F)c(F)c([C@]3(C(F)F)COCC(N)=N3)c2)c(C([2H])([2H])[2H])c([2H])c1Cl [Example 16]
Reply text: 7.85

(1) C#CCOc1cnc(C(=O)Nc2ccc(F)c([C@]3(C)CO[C@@](C)(C(F)(F)F)C(N)=N3)c2)c(N)n1 [Example 25]
(2) COc1cc(C(F)F)c(C(=O)Nc2ccc(F)c([C@]3(C)CO[C@@](C)(C(F)(F)F)C(N)=N3)c2)nn1 [Example 30, hydrochloride]
Inquiry: # returns the entry with the larger pIC50; inputs 1 and 2 Reply briefly: the label of your chosen item.
Reply text: 1
(1: 9.00, 2: 7.21)
